pIC50: −log10 of the molar value.
Collected pIC50 for Tyrosine-protein kinase JAK2 (Homo sapiens) across several studies; compounds listed below.
metric: pIC50

> print(dat)
                                smiles.data  number
1  C=CS(=O)(=O)NCc1ccc(Nc2ncc(C)c(-c3cnn(C(C)C)c3)n2)cc1    8.30
2  CN1CCN(c2ccc(Nc3nccc(-c4cc5c(o4)CCN(C(=O)CC#N)C5)n3)cc2)CC1    7.27
3  CCOC(=O)Oc1cccc(Nc2cc(Nc3ccccc3Cl)c(C(N)=O)cn2)n1    7.28

* * *

Collected pIC50 for Tyrosine-protein kinase JAK2 (Homo sapiens) across several studies; compounds listed below.
pIC50: −log10 of the molar value.
metric: pIC50

> print(dat)
                                    compound  metric  value.relation.sign  number
 1  CCn1c(C(=O)N(C2CC2)C2CC2)cc2c3c(ncn3C)c(NC(=O)OCCOC)nc21   pIC50                    =    7.60
 2  Cc1cnc(Nc2ccc(CNC(=O)CCl)cc2)nc1-c1cnn(C(C)C)c1   pIC50                    =    8.52
 3  O=C1NC(=O)C(c2c[nH]c3ccccc23)=C1c1cc(F)ccc1C(F)(F)F   pIC50                    <    5.00
 4  O=C(CCCCCCn1cc(Nc2ncc3ccn(C4CCCC4)c3n2)cn1)NO   pIC50                    <    7.00
 5  CN(c1ncnc2[nH]ccc12)[C@H]1CN(C(=O)Nc2ccccc2)CC12CC2   pIC50                    =    6.38
 6  CCn1c(C(=O)N(C2CC2)C2CC2)cc2c3c(ncn3C)c(NC(=O)NCCOC)nc21   pIC50                    =    7.92
 7  CC(Nc1nc(Nc2cn(C)cn2)c2cccnc2n1)c1ncc(F)cn1 (racemic)   pIC50                    =    7.48
 8  Cc1cnc(Nc2ccc(OCCN3CCCC3)cc2)nc1Nc1ccc(C(=O)NO)cc1   pIC50                    =    8.74
 9         O=c1[nH]c2cnc3[nH]ccc3c2n1C1CCCC1   pIC50                    =    7.01
10  O=C(CCCCCn1cc(Nc2ncc3ccn(Cc4ccccc4F)c3n2)cn1)NO   pIC50                    =    8.00
